target: glucocorticoid receptor (GR) (Homo sapiens, UniProt P04150); construct: made in house; host or cells: Sf9 cells infected with recombinant baculovirus (cytosol preparation); assay: binding to recombinantly produced glucocorticoid receptor, cytosol preparations of Sf9 cells, [3H]-dexamethasone as reference; conditions: recombinant GR
Sequence (P04150 whole entry, species assumed): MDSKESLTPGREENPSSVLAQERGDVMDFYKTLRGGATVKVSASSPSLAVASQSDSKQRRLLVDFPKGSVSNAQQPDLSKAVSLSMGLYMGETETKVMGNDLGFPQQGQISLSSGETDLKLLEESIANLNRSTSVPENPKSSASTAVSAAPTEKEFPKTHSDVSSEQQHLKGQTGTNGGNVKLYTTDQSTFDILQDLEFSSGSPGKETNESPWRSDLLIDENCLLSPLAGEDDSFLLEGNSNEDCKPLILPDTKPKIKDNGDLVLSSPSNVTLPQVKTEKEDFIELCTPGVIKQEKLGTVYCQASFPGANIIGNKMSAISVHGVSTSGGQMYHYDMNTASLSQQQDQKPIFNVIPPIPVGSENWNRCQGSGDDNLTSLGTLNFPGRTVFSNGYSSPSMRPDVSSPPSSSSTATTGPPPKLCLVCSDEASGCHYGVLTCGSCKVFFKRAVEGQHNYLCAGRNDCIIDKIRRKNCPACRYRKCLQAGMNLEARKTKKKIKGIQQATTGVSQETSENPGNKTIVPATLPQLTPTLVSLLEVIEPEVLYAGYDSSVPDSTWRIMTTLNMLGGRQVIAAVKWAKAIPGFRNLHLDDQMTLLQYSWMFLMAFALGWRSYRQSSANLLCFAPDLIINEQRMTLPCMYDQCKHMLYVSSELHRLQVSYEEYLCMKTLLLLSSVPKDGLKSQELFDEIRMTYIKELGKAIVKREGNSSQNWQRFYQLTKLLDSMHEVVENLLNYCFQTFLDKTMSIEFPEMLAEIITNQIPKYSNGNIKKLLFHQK
pIC50: −log10 of the molar value.

molecule: COc1c(F)ccc2c1C(C)(C)C[C@](O)(C(F)(F)F)[C@H]2NC(=O)c1cnn(-c2ccc(F)cc2F)c1N (relative stereo) [Example 3]
system: glucocorticoid receptor (GR) (Homo sapiens, UniProt P04150)
pIC50: 8.22

----------
molecular target: ER; assay: steroid receptor binding, ER
pIC50: −log10 of the molar value.

compound: COc1c(F)ccc2c1C(C)(C)C[C@](O)(C(F)(F)F)[C@H]2NC(=O)c1cnn(-c2ccc(F)cc2F)c1N (relative stereo)
pIC50: < 6.00

----------
biological target: progesterone receptor (PR) (Homo sapiens, UniProt P06401); experiment: binding to recombinantly produced progesterone receptor
Sequence (P06401 whole entry, species assumed): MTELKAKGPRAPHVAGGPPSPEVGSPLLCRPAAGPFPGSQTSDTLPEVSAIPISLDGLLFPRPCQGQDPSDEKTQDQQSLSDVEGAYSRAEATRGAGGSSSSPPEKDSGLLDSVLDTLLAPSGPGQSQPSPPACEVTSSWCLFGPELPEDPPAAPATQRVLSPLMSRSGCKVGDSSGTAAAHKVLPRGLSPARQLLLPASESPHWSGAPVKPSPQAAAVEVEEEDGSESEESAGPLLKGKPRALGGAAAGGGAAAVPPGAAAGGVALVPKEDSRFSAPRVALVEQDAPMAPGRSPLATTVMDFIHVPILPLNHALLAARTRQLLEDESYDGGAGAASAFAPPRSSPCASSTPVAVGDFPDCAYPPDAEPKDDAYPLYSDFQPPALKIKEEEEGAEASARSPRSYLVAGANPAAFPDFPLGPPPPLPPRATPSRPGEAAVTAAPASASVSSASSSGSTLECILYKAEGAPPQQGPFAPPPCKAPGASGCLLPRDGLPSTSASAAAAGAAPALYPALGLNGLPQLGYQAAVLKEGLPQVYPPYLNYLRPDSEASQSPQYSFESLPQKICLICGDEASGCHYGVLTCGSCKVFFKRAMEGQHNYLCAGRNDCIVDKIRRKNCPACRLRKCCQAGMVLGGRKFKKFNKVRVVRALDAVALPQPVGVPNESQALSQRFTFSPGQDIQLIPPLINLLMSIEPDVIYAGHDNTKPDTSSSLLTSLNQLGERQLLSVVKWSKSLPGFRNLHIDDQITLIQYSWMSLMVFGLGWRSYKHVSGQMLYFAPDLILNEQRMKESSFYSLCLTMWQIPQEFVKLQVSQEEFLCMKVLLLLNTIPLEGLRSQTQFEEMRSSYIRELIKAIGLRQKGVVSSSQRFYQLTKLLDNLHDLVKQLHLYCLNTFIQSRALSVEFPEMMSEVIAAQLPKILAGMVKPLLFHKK
pIC50: −log10 of the molar value.

compound: COc1c(F)ccc2c1C(C)(C)C[C@](O)(C(F)(F)F)[C@H]2NC(=O)c1cnn(-c2ccc(F)cc2F)c1N (relative stereo)
pIC50: < 6.00

----------
Molecular target: mineral corticoid receptor (MR) (Homo sapiens)
Sequence (P08235 1-984): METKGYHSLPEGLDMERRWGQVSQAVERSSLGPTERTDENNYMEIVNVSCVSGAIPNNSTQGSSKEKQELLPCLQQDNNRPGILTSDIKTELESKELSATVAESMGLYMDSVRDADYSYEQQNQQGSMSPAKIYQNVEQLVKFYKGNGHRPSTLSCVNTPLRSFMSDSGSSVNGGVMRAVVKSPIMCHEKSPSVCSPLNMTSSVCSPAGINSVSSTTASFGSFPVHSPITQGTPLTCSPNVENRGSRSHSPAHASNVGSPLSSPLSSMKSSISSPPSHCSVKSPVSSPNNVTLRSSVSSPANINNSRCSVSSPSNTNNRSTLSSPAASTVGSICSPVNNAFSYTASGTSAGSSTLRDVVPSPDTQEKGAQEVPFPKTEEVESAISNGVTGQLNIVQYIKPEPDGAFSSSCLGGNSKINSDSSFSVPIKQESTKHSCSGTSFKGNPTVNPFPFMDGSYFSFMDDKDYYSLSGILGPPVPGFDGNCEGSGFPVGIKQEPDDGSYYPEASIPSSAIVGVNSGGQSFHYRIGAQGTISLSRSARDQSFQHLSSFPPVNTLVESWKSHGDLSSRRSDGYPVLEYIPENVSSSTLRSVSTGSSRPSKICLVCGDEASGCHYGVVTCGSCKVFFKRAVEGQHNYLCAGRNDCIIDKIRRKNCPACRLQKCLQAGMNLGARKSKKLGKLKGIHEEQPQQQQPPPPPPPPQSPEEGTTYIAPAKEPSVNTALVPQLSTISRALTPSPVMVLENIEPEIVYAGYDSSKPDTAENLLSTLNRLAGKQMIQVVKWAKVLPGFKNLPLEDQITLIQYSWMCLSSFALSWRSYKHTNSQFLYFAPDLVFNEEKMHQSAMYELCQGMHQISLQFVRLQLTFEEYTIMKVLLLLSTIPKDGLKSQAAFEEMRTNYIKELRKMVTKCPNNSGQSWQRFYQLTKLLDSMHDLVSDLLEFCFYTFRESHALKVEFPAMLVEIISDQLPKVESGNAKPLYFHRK
Assay: binding to recombinantly produced mineral corticoid receptor

compound: COc1c(F)ccc2c1C(C)(C)C[C@](O)(C(F)(F)F)[C@H]2NC(=O)c1cnn(-c2ccc(F)cc2F)c1N (relative stereo)
IC50: > 1000 nM

----------
target: androgen receptor (AR) (Homo sapiens, UniProt P10275); assay: binding to recombinantly produced androgen receptor
Sequence (P10275 whole entry, species assumed): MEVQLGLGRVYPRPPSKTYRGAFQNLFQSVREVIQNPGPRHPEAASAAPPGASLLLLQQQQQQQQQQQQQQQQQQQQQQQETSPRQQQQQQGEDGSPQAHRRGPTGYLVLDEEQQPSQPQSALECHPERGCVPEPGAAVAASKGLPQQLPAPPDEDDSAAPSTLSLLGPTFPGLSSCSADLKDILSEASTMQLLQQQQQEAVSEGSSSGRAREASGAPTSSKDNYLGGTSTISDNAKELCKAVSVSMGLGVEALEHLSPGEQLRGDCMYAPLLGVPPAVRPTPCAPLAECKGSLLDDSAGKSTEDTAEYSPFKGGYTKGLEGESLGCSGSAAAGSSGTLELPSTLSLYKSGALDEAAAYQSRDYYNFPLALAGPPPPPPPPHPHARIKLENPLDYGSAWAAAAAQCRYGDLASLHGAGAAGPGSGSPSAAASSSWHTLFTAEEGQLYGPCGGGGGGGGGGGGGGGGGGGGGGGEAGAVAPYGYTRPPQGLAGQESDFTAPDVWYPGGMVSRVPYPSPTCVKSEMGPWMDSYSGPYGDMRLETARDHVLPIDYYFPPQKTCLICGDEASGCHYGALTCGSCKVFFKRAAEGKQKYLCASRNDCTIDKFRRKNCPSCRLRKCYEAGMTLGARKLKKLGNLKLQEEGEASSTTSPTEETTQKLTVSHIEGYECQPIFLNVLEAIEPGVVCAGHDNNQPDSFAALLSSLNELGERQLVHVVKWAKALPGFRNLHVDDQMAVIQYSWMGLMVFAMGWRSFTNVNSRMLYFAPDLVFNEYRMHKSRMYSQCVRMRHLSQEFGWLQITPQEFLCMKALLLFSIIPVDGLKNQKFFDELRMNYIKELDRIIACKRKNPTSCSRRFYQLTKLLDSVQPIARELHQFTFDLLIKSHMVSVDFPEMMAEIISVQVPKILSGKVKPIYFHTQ
measured-endpoint: IC50

molecule: COc1c(F)ccc2c1C(C)(C)C[C@](O)(C(F)(F)F)[C@H]2NC(=O)c1cnn(-c2ccc(F)cc2F)c1N (relative stereo)
measured-endpoint: IC50
observed-measurement: > 1 µM
